Reference source for all entries: the supplement of paper PMC7877785

EXPERIMENT SUMMARY: self-splicing fitness, log relative to wild type (ln ratio); higher = more splicing; Tetrahymena group I intron in knt gene, E. coli kanamycin selection, DiMSum; sequences stand for … in CUCUCU…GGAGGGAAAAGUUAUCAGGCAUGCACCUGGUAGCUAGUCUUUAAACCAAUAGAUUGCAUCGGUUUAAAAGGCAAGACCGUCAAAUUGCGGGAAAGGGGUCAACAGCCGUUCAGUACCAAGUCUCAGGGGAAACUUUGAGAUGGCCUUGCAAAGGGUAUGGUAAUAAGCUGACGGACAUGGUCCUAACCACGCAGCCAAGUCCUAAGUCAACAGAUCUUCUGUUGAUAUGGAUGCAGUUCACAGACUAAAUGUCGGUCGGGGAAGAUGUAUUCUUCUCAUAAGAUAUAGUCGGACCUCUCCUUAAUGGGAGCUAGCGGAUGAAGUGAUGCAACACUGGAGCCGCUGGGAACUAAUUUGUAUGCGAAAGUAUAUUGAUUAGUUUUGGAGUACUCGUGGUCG;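 further: selection with 25 µg/mL kanamycin versus none on LB agar overnight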
MEASUREMENT PARAMETERS: 30 °C
OBSERVED PROPERTY: self-splicing fitness (ln)

Example entries begin here.
INSERT INTO results (input_sequence, observed_property, recorded_measurement) VALUES
  ('ACCUAGCAAUAUUACGUUGG', 'self-splicing fitness (ln)', -2.35),
  ('AUUUAGCAAUAUUACGUGUG', 'self-splicing fitness (ln)', -2.36),
  ('ACAAAGCAAUAUUACGGGGU', 'self-splicing fitness (ln)', -3.15),
  ('AAUUAGCAAUAUUACGGUAA', 'self-splicing fitness (ln)', -2.72),
  ('UGUUAGCAAUAUUACGAAAA', 'self-splicing fitness (ln)', -2.39),
  ('CGAAAGCAAUAUUACGGAGA', 'self-splicing fitness (ln)', -2.59),
  ('GACGAGCAAUAUUACGUCCG', 'self-splicing fitness (ln)', -3.22),
  ('UUGGAGCAAUAUUACGGACG', 'self-splicing fitness (ln)', -3.11),
  ('GGGCAGCAAUAUUACGAAGA', 'self-splicing fitness (ln)', -2.31),
  ('UGCCAGCAAUAUUACGAGUC', 'self-splicing fitness (ln)', -3.49);

Exercise: Give a short answer stating reported self-splicing fitness (ln) for GCACAGCAAUAUUACGCGGC .
Solution: -4.04

Exercise: Give a short answer stating reported self-splicing fitness (ln) for GCUAAGCAAUAUUACGGCCC .
Solution: -1.78

Exercise: Give a short answer stating reported self-splicing fitness (ln) for GACGAGCAAUAUUACGCGAU .
Solution: -2.42

Exercise: Give a short answer stating reported self-splicing fitness (ln) for GAACAGCAAUAUUACGACAG .
Solution: -3.37

* * *

EXPERIMENT SUMMARY: self-splicing fitness, log relative to wild type (ln ratio); higher = more splicing; Tetrahymena group I intron in knt gene, E. coli kanamycin selection, DiMSum; sequences stand for … in CUCUCU…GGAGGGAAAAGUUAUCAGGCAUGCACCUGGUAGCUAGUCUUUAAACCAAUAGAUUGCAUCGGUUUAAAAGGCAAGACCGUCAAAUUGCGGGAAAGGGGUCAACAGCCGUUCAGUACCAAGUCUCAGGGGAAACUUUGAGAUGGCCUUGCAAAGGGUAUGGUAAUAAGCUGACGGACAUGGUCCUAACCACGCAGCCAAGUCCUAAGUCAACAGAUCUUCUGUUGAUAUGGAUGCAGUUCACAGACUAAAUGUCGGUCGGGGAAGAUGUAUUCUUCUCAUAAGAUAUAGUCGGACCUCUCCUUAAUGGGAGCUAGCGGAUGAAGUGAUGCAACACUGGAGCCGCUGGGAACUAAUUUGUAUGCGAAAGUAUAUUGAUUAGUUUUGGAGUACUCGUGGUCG
MEASUREMENT PARAMETERS: 30 °C
Grouping key: self-splicing fitness (ln). Bins: class 1 (below -3), class 2 (-3 to below -2), class 3 (-2 or more)

INSERT INTO measurements (input_sequence, cat) VALUES
  ('CAUUAGCAAUAUUACGCCAA', 'class 2'),
  ('UCUAAGCAAUAUUACGCUCU', 'class 1');

Exercise: Please classify: CAUAAGCAAUAUUACGGAGU
Solution: class 1

* * *

Collected self-splicing fitness (ln) values appear next to each entry.
EXPERIMENT SUMMARY: self-splicing fitness, log relative to wild type (ln ratio); higher = more splicing; Tetrahymena group I intron in knt gene, E. coli kanamycin selection, DiMSum; sequences stand for … in CUCUCU…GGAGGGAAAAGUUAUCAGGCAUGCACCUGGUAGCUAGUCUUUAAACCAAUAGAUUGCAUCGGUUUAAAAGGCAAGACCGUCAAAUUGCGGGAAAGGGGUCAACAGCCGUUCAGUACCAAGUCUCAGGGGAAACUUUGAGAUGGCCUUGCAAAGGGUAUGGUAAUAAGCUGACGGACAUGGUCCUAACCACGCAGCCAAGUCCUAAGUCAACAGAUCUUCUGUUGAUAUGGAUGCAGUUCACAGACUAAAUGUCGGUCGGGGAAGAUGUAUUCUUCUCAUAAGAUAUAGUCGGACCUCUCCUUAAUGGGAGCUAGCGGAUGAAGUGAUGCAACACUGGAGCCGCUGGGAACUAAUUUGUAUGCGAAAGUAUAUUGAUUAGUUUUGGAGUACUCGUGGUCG
MEASUREMENT PARAMETERS: 37 °C
Note: the reply should be a number with no unit written.

Example entries begin here.
INSERT INTO results (input_sequence, observed_property, recorded_measurement) VALUES
  ('CAGAAGCAAUAUUACGUAAG', 'self-splicing fitness (ln)', 0.772),
  ('GCUUAGCAAUAUUACGCACC', 'self-splicing fitness (ln)', 0.115),
  ('UACGAGCAAUAUUACGGUCU', 'self-splicing fitness (ln)', -3.1),
  ('UCUAAGCAAUAUUACGUCCU', 'self-splicing fitness (ln)', -0.964),
  ('GCCUAGCAAUAUUACGCGGU', 'self-splicing fitness (ln)', -3),
  ('AAAGAGCAAUAUUACGGUAA', 'self-splicing fitness (ln)', -1.67),
  ('CAGUAGCAAUAUUACGCAAC', 'self-splicing fitness (ln)', -1.53),
  ('GAGUAGCAAUAUUACGAGCC', 'self-splicing fitness (ln)', -1.26),
  ('CUAGAGCAAUAUUACGACGU', 'self-splicing fitness (ln)', -0.837);

Now let's try a different one.
Exercise: Give a short answer stating reported self-splicing fitness (ln) for GGAGAGCAAUAUUACGAUGC .
Solution: -0.975

* * *

EXPERIMENT SUMMARY: self-splicing fitness, log relative to wild type (ln ratio); higher = more splicing; Tetrahymena group I intron in knt gene, E. coli kanamycin selection, DiMSum; sequences stand for … in CUCUCU…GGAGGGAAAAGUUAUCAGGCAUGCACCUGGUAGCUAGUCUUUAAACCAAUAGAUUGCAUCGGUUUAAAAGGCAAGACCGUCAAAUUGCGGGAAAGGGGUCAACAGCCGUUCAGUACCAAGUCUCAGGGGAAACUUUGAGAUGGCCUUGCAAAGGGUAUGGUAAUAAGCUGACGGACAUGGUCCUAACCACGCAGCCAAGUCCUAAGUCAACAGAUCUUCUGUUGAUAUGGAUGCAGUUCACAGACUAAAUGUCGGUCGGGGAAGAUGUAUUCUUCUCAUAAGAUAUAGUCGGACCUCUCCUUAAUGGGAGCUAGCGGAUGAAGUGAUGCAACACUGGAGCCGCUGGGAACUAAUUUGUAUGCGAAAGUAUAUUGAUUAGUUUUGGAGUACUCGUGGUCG
MEASUREMENT PARAMETERS: 30 °C
OBSERVED PROPERTY: self-splicing fitness (ln)
Note: the reply should be a number with no unit written.

Example entries begin here.
INSERT INTO results (input_sequence, observed_property, recorded_measurement) VALUES
  ('UCGAAGCAAUAUUACGGAAA', 'self-splicing fitness (ln)', -1.95),
  ('CCUCAGCAAUAUUACGUGGA', 'self-splicing fitness (ln)', -3.84);

Now let's try a different one.
Exercise: Give a short answer stating reported self-splicing fitness (ln) for CUCCAGCAAUAUUACGCCAC .
Solution: -2.7

* * *

Collected self-splicing fitness (ln) values appear next to each entry.
EXPERIMENT SUMMARY: self-splicing fitness, log relative to wild type (ln ratio); higher = more splicing; Tetrahymena group I intron in knt gene, E. coli kanamycin selection, DiMSum; sequences stand for … in CUCUCU…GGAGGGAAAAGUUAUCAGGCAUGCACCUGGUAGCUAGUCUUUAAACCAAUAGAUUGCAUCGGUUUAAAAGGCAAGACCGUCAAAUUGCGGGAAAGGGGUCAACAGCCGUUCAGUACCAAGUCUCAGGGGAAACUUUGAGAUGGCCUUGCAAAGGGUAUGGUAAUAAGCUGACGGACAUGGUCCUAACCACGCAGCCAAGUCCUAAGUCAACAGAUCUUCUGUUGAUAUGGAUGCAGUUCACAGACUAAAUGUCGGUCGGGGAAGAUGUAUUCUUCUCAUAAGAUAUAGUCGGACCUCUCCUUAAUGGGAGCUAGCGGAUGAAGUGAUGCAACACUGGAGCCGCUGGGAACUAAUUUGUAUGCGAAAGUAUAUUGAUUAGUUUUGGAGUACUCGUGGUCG
MEASUREMENT PARAMETERS: 37 °C
Note: the reply should be a number with no unit written.

Example entries begin here.
INSERT INTO results (input_sequence, observed_property, recorded_measurement) VALUES
  ('GAGUAGCAAUAUUACGUCUU', 'self-splicing fitness (ln)', -1.49),
  ('CUCCAGCAAUAUUACGCGUG', 'self-splicing fitness (ln)', -1.29),
  ('UGGGAGCAAUAUUACGGAUG', 'self-splicing fitness (ln)', -1.14),
  ('CACAAGCAAUAUUACGGUAA', 'self-splicing fitness (ln)', -2.21),
  ('AAUCAGCAAUAUUACGUUGC', 'self-splicing fitness (ln)', -3.16),
  ('AUGAAGCAAUAUUACGGGUA', 'self-splicing fitness (ln)', -0.761),
  ('GUUGAGCAAUAUUACGCUGA', 'self-splicing fitness (ln)', -2.61),
  ('UAUCAGCAAUAUUACGGUGC', 'self-splicing fitness (ln)', -1.14),
  ('UGGAAGCAAUAUUACGAUGA', 'self-splicing fitness (ln)', -0.0449),
  ('CAAUAGCAAUAUUACGAUUU', 'self-splicing fitness (ln)', -0.775);

Exercise: Give a short answer stating reported self-splicing fitness (ln) for CUGGAGCAAUAUUACGCAUG .
Solution: -0.898

Exercise: Give a short answer stating reported self-splicing fitness (ln) for GAACAGCAAUAUUACGUCUU .
Solution: 0.229

Exercise: Give a short answer stating reported self-splicing fitness (ln) for GACAAGCAAUAUUACGCAUG .
Solution: -0.814

Exercise: Give a short answer stating reported self-splicing fitness (ln) for CCGCAGCAAUAUUACGCACC .
Solution: -2.05

Exercise: Give a short answer stating reported self-splicing fitness (ln) for UUCUAGCAAUAUUACGAUAG .
Solution: -2.05
